target-under-test: human LSD1 (Homo sapiens (Human), UniProt O60341)
assay-method-text: Experiment 1B: in vitro LSD1 enzyme activity, enzyme-coupled fluorescence (HRP/Amplex Red), H3(1-21)K4me2 peptide 10 μM (Reaction Biology)
Assay type: biochemical
details: histone H3(1-21)K4me2 peptide 10 μM
Counter-ions that a name gives are not always drawn.
measured-attribute: IC50 (nM)
Record the value in nM, omitting the unit from your answer.

QUERY: Dear colleague, I am looking for the recorded IC50 of the following molecule: N#Cc1ccc(-c2cc(C(=O)N3CCC[C@@H](N)C3)sc2-c2ccc(N3CCC(O)C3)cc2)cc1F (some centres unmarked) [Hydrochloride of compound 85]
RESULT: 14.2

***
QUERY: Dear colleague, I am looking for the recorded IC50 of the following molecule: CC(C)(O)c1ccc(-c2sc(C(=O)N3CCC[C@@H](N)C3)cc2-c2ccc(C#N)c(F)c2)cc1
RESULT: 28.3

###

target-under-test: hERG potassium ion channels (Homo sapiens (Human), UniProt Q12809)
Sequence (Q12809 whole entry): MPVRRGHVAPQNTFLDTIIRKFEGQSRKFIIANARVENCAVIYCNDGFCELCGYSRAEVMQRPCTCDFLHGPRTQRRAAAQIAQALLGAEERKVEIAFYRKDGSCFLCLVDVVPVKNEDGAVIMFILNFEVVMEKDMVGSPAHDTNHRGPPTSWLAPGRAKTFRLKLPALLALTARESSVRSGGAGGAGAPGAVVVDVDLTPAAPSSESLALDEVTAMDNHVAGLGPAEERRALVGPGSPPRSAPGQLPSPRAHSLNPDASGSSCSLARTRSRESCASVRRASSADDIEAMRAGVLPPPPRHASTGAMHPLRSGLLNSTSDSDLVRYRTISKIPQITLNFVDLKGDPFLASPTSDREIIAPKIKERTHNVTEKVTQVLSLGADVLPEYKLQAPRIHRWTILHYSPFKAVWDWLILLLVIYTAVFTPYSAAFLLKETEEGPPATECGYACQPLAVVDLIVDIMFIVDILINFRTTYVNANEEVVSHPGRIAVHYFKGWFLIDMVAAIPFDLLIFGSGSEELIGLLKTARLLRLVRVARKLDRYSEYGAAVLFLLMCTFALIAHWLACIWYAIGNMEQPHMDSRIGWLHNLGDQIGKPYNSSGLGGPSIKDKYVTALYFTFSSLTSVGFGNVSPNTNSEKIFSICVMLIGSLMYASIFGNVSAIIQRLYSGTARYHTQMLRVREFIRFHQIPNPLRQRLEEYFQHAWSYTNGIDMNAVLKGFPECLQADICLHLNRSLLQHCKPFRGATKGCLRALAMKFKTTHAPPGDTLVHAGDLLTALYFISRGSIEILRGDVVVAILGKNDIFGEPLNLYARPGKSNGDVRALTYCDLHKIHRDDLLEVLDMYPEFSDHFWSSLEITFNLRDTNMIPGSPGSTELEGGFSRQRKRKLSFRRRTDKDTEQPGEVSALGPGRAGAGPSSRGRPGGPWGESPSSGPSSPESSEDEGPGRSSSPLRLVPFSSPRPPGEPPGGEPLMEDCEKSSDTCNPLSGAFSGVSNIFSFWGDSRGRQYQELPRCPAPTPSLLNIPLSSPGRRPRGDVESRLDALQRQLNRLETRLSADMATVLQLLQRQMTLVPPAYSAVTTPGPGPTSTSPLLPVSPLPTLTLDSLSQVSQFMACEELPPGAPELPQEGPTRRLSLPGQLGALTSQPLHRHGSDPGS
assay-method-text: Experiment 4: hERG potassium ion channel inhibition, automated patch clamp (Qpatch), CHO-hERG cells
Assay type: cell-based
details: highest test concentration 40 μM
Where a name gives a salt, the structure may show the parent alone.
measured-attribute: IC50

Guide cases for IC50, answers given:
QUERY: Dear colleague, I am looking for the recorded IC50 of the following molecule: CC(C)(O)Cn1cc2cc(-c3sc(C(=O)N4CCC[C@@H](N)C4)cc3-c3ccc(C#N)c(F)c3)cnc2n1 [Compound 61]
RESULT: > 40 µM

QUERY: Dear colleague, I am looking for the recorded IC50 of the following molecule: CC1(O)CN(C(=O)c2ccc(-c3sc(C(=O)N4CCC[C@@H](N)C4)cc3-c3ccc(C#N)c(F)c3)cc2)C1 [Compound 81]
RESULT: > 40 µM

***
QUERY: Dear colleague, I am looking for the recorded IC50 of the following molecule: N#Cc1ccc(-c2cc(C(=O)N3CCC[C@@H](N)C3)sc2-c2cc3cn([C@H]4COCC[C@@H]4O)nc3cc2F)cc1F [Hydrochloride of compound 94]
RESULT: > 40 µM

###

Items are presented alongside their recorded IC50.
target-under-test: human LSD1 (Homo sapiens (Human))
assay-method-text: Experiment 1A: in vitro LSD1 enzyme activity, enzyme-coupled fluorescence (HRP/Amplex Red), H3K4me peptide 20 μM (Wuhan Heyan)
Type: biochemical
details: histone H3K4me peptide 20 μM
Structures can show the parent of a compound that is named as a salt.
Record the value in nM, omitting the unit from your answer.

Guide cases for IC50, answers given:
QUERY: Dear colleague, I am looking for the recorded IC50 of the following compound: COc1ccc(-c2sc(C(=O)N3CCC(N)CC3)cc2-c2ccc(C#N)c(F)c2)cc1F [Hydrochloride of compound 4]
RESULT: 110

QUERY: Dear colleague, I am looking for the recorded IC50 of the following compound: COc1ccc(-c2sc(C(=O)N3CCCC[C@@H](N)C3)cc2-c2ccc(C#N)c(F)c2)cc1F [Hydrochloride of compound 8]
RESULT: 120

QUERY: Dear colleague, I am looking for the recorded IC50 of the following compound: COc1ccc(-c2sc(C(=O)N3CC4CNCC4C3)cc2-c2ccc(C#N)c(F)c2)cc1F (stereo not drawn) [Hydrochloride of compound 9]
RESULT: 118

QUERY: Dear colleague, I am looking for the recorded IC50 of the following compound: COc1ccc(-c2sc(C(=O)NC3CC4CCC3N4)cc2-c2ccc(C#N)c(F)c2)cc1F (stereo not drawn) [Hydrochloride of compound 15]
RESULT: 310

QUERY: Dear colleague, I am looking for the recorded IC50 of the following compound: COc1ccc(-c2sc(C(=O)N3CC[C@@H](N)C3)cc2-c2ccc(C#N)c(F)c2)cc1F [Hydrochloride of compound 12]
RESULT: 393

Next:
QUERY: Dear colleague, I am looking for the recorded IC50 of the following compound: COc1ccc(-c2sc(C(=O)N3C4CCC3C(N)C4)cc2-c2ccc(C#N)c(F)c2)cc1F (racemic) [Hydrochloride of compound 2]
RESULT: 122
